# Test system: MDA-MB-468 breast
# experiment.summary: NCI tumour cell line growth inhibition, 48 h; in the data active means GI50 below about 0.43 µM; inactive means the rest
The reply should name one outcome from 1 (active), 0 (inactive)

// query Lab log entry: `Cc1cc(Nc2ccc3c(c2)OCO3)c2cc3c(cc2n1)OCO3` — outcome as called in the assay?
// result 0

// query Lab log entry: N#Cc1c(Br)n(C2OC(CO)C(O)C2O)c2ncn3ccnc3c12 (stereo not given) — outcome as called in the assay?
// result 0

// query Lab log entry: `CCCN(CCC)c1ccc(CO)c(Cl)c1` — outcome as called in the assay?
// result 1

// query Lab log entry: `CC1=C(COCCOC(=O)c2ccc(S(=O)(=O)F)cc2)C2=C(C)C3(CC3)[C@@](C)(O)C(=O)C2=C1` — outcome as called in the assay?
// result 0

// query Lab log entry: CCCC(=O)NC(c1ccc(N(CC)CC)cc1)c1cc(C)c2cccnc2c1O (stereo not given) — outcome as called in the assay?
// result 1
